# credit: patent US6525001B1

# maps each entry to its Plant response rating, Rice
- Test system: rice (Oryza sativa)
- assay-explanation: Test B flood test
- Assay type: in vivo
- experimental-context: Rate 500 g/ha, Postemergence (flood test species)

[
  {
    "compound": "Cc1cnc(-n2ccc(C(F)(F)F)n2)nc1C(=O)c1cccc(OC(F)(F)F)c1 [Compound 66]",
    "Plant response rating, Rice": 2
  },
  {
    "compound": "Cc1cnc(-n2ccc(C(F)(F)F)n2)nc1C(=O)c1ccc(C(F)(F)F)cc1 [Compound 65]",
    "Plant response rating, Rice": 0
  },
  {
    "compound": "Cc1cnc(-n2ccc(C(F)(F)F)n2)nc1C(=O)c1cccc(C(F)(F)F)c1 [Compound 59]",
    "Plant response rating, Rice": 6
  },
  {
    "compound": "Cc1cnc(-c2ccc(C(F)(F)F)cc2)nc1C(=O)c1ccc(C(F)(F)F)cc1 [Compound 74]",
    "Plant response rating, Rice": 0
  },
  {
    "compound": "Cc1cnc(-c2ccccc2)nc1Cn1ccc(C(F)(F)F)n1 [Compound 7]",
    "Plant response rating, Rice": 0
  },
  {
    "compound": "Cc1cnc(-c2ccc(C(F)(F)F)cc2)nc1Cn1cc(I)cn1 [Compound 12]",
    "Plant response rating, Rice": 3
  }
]

----------
# maps each entry to its Plant response rating, Sugarbeets
- System: sugar beet (Beta vulgaris)
- assay-explanation: Test B pre-/postemergence
- Type: in vivo
- experimental-context: Rate 62 g/ha, Postemergence
measured-parameter: Plant response rating, Sugarbeets

[
  {
    "compound": "COC(=O)C(c1cccc(C(F)(F)F)c1)c1nc(-c2ccc(C(F)(F)F)cc2)ncc1C (racemic)",
    "target": "sugar beet (Beta vulgaris)",
    "measured-parameter": "Plant response rating, Sugarbeets",
    "experimental-result": 7
  },
  {
    "compound": "Cc1cnc(-c2ccc(C(F)(F)F)cc2)nc1Cn1ccc(C(F)(F)C(F)(F)F)n1",
    "target": "sugar beet (Beta vulgaris)",
    "measured-parameter": "Plant response rating, Sugarbeets",
    "experimental-result": 7
  },
  {
    "compound": "Cc1cnc(-n2ccc(C(F)(F)F)n2)nc1Cn1ccc(C(F)(F)F)n1",
    "target": "sugar beet (Beta vulgaris)",
    "measured-parameter": "Plant response rating, Sugarbeets",
    "experimental-result": 9
  },
  {
    "compound": "Cc1cnc(-c2ccc(OC(F)(F)F)cc2)nc1Cc1cccc(C(F)(F)F)c1",
    "target": "sugar beet (Beta vulgaris)",
    "measured-parameter": "Plant response rating, Sugarbeets",
    "experimental-result": 8
  },
  {
    "compound": "Cc1cnc(-c2ccc(C(F)(F)F)cc2)nc1Cn1cc(I)cn1",
    "target": "sugar beet (Beta vulgaris)",
    "measured-parameter": "Plant response rating, Sugarbeets",
    "experimental-result": 7
  },
  {
    "compound": "Cc1cnc(-n2ccc(C(F)(F)F)n2)nc1Cc1cccc(OC(F)(F)F)c1",
    "target": "sugar beet (Beta vulgaris)",
    "measured-parameter": "Plant response rating, Sugarbeets",
    "experimental-result": 10
  },
  {
    "compound": "Cc1cnc(-c2ccc(Cl)cc2)nc1Cn1ccc(C(F)(F)F)n1",
    "target": "sugar beet (Beta vulgaris)",
    "measured-parameter": "Plant response rating, Sugarbeets",
    "experimental-result": 7
  },
  {
    "compound": "Cc1cnc(-c2ccc(F)c(Cl)c2)nc1Cc1cccc(C(F)(F)F)c1",
    "target": "sugar beet (Beta vulgaris)",
    "measured-parameter": "Plant response rating, Sugarbeets",
    "experimental-result": 10
  }
]

----------
- Test system: crabgrass (Digitaria sanguinalis)
- assay-explanation: Test B pre-/postemergence
- Format: in vivo
- experimental-context: Rate 62 g/ha, Postemergence
measured-parameter: Plant response rating, Crabgrass

[
  {
    "molecule-smiles": "Cc1cnc(-c2ccccc2F)nc1Cc1cccc(C(F)(F)F)c1",
    "target": "crabgrass (Digitaria sanguinalis)",
    "experimental-result": 1
  },
  {
    "molecule-smiles": "Cc1cnc(-c2ccccc2F)nc1Cc1cccc(C#N)c1",
    "target": "crabgrass (Digitaria sanguinalis)",
    "experimental-result": 0
  },
  {
    "molecule-smiles": "CCc1cnc(-c2ccc(C(F)(F)F)cc2)nc1Cc1cccc(C(F)(F)F)c1",
    "target": "crabgrass (Digitaria sanguinalis)",
    "experimental-result": 9
  }
]

----------
# maps each entry to its Plant response rating, Giant foxtail
- System: giant foxtail (Setaria faberii)
- assay-explanation: Test B pre-/postemergence
- Type: in vivo
- experimental-context: Rate 62 g/ha, Postemergence
- Experimental: […] At the same time, these crop and weed species were also treated with postemergence applications of test chemicals formulated in the same manner. […] Treated plants and controls were maintained in a greenhouse for twelve to sixteen days, after which all species were compared to controls and visually evaluated. […]
measured-parameter: Plant response rating, Giant foxtail

[
  {
    "molecule": "COC(c1cccc(C(F)(F)F)c1)c1nc(-c2ccc(C(F)(F)F)cc2)ncc1C (racemic)",
    "experimental-result": 2
  },
  {
    "molecule": "COC(=O)C(c1cccc(C(F)(F)F)c1)c1nc(-c2ccc(C(F)(F)F)cc2)ncc1C (racemic)",
    "experimental-result": 1
  },
  {
    "molecule": "Cc1cnc(-c2ccccc2F)nc1Cc1cccc(C#N)c1",
    "experimental-result": 0
  },
  {
    "molecule": "Cc1cnc(-n2ccc(C(F)(F)F)n2)nc1Cc1cccc(OC(F)(F)F)c1",
    "experimental-result": 6
  }
]

----------
- Tested on: sugar beet (Beta vulgaris)
- assay-explanation: Test B pre-/postemergence
- Format: in vivo
- experimental-context: Rate 250 g/ha, Postemergence (so in the source)
# maps each entry to its Plant response rating, Sugarbeets

[
  {
    "molecule-smiles": "Cc1cnc(-c2ccc(Cl)c(Cl)c2)nc1Cc1cccc(C(F)(F)F)c1",
    "Plant response rating, Sugarbeets": 8
  },
  {
    "molecule-smiles": "CCc1cnc(-n2ccc(C(F)(F)F)n2)nc1Cc1cccc(C(F)(F)F)c1",
    "Plant response rating, Sugarbeets": 10
  },
  {
    "molecule-smiles": "CCc1cnc(-n2cnc(C(F)(F)F)n2)nc1Cc1cccc(OC(F)(F)F)c1",
    "Plant response rating, Sugarbeets": 10
  },
  {
    "molecule-smiles": "Cc1cnc(-n2cnc(C(F)(F)F)n2)nc1Cc1cccc(C(F)(F)F)c1",
    "Plant response rating, Sugarbeets": 10
  },
  {
    "molecule-smiles": "CCc1cnc(-n2ccc(C(F)(F)F)n2)nc1Cc1cccc(OC(F)(F)F)c1",
    "Plant response rating, Sugarbeets": 9
  }
]

----------
- Test system: surinam grass (Brachiaria decumbens)
- assay-explanation: Test C
- Format: in vivo
- experimental-context: PREEMERGENCE, Rate 70 g/ha

[
  {
    "molecule": "COc1cnc(-c2ccc(C(F)(F)F)cc2)nc1Cc1cccc(C(F)(F)F)c1 [Compound 23]",
    "Plant response rating, Surinam grass": 45
  },
  {
    "molecule": "Cc1cnc(-n2ccc(C(F)(F)F)n2)nc1Cc1cccc(OC(F)(F)F)c1 [Compound 42]",
    "Plant response rating, Surinam grass": 55
  },
  {
    "molecule": "CCc1cnc(-n2ccc(C(F)(F)F)n2)nc1Cc1cccc(C(F)(F)F)c1 [Compound 46]",
    "Plant response rating, Surinam grass": 5
  },
  {
    "molecule": "Cc1cnc(-c2ccc(C(F)(F)F)cc2)nc1Cc1cccc(C(F)(F)F)c1 [Example 1]",
    "Plant response rating, Surinam grass": 90
  }
]

----------
# maps each entry to its Plant response rating, Barnyardgrass
- Test system: bamyardgrass (Echinochloa crus-galli)
- assay-explanation: Test B flood test
- Assay type: in vivo
- experimental-context: Rate 62 g/ha, Postemergence (flood test)

[
  {
    "molecule": "Cc1cnc(-c2ccc(F)c(Cl)c2)nc1Cc1cccc(C#N)c1 [Compound 40]",
    "target": "bamyardgrass (Echinochloa crus-galli)",
    "Plant response rating, Barnyardgrass": 2
  },
  {
    "molecule": "Cc1cnc(-c2ccc(C(F)(F)F)cc2)nc1C(C#N)c1cccc(C(F)(F)F)c1 (racemic) [Compound 17]",
    "target": "bamyardgrass (Echinochloa crus-galli)",
    "Plant response rating, Barnyardgrass": 4
  },
  {
    "molecule": "Cc1cnc(-n2cnc(C(F)(F)F)c2)nc1Cc1cccc(C(F)(F)F)c1 [Compound 44]",
    "target": "bamyardgrass (Echinochloa crus-galli)",
    "Plant response rating, Barnyardgrass": 3
  },
  {
    "molecule": "Cc1cnc(-n2cnc(C(F)(F)F)n2)nc1Cc1cccc(C(F)(F)F)c1 [Compound 43]",
    "target": "bamyardgrass (Echinochloa crus-galli)",
    "Plant response rating, Barnyardgrass": 4
  },
  {
    "molecule": "Cc1cnc(-c2ccc(C#N)cc2)nc1Cc1cccc(C#N)c1 [Compound 36]",
    "target": "bamyardgrass (Echinochloa crus-galli)",
    "Plant response rating, Barnyardgrass": 0
  },
  {
    "molecule": "Cc1cnc(-c2ccc(C(F)(F)F)cc2)nc1C(Cl)c1cccc(C(F)(F)F)c1 (racemic) [Compound 21]",
    "target": "bamyardgrass (Echinochloa crus-galli)",
    "Plant response rating, Barnyardgrass": 3
  },
  {
    "molecule": "Cc1cnc(-n2ccc(C(F)(F)F)n2)nc1Cn1ccc(C(F)(F)F)n1 [Compound 52]",
    "target": "bamyardgrass (Echinochloa crus-galli)",
    "Plant response rating, Barnyardgrass": 5
  },
  {
    "molecule": "Cc1cnc(-c2ccc(C(F)(F)F)cc2)nc1Cn1ccc(C(F)(F)C(F)(F)F)n1 [Compound 14]",
    "target": "bamyardgrass (Echinochloa crus-galli)",
    "Plant response rating, Barnyardgrass": 4
  }
]
